TARGET SYSTEM: human NKp30 (human) (UniProt O14931)
Sequence (O14931 19-135 limits assumed): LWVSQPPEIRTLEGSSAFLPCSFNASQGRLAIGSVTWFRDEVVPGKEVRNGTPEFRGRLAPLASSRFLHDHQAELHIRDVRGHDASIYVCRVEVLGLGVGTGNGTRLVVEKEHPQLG
EXPERIMENT SUMMARY: BLI, immunoligand on anti-hFc tip
QUANTITY: koff (s⁻¹)
Dear colleague, please return just the value in s⁻¹, with no unit written.

Below: 5 binders and their reported koff.
{"BINDER": "ΔB7-H6_S3#11-SEED-PGLALA (bispecific antibody, part only; not given: SEED Fc chains and hu225 Fab, part only) chain, part: DLKVEMMAGGTQITPLNDNVTIFCNIFYSQPLNITLMGITWFWKSLTFDKEVKVFEFWGDHQEAFRPGAIVSPWRLKSGDASLRLPGIQLEEAGEYRCEVIVTPFKAQGTVQLEVVASPAS", "koff [s⁻¹]": 0.0432}
{"BINDER": "ΔB7-H6_S2#10-SEED-PGLALA (bispecific antibody, part only; not given: SEED Fc chains and hu225 EGFR Fab, part only) chain, part: DLKVEMMAGGTQITPLNDNVTIFCNIFYSQPLNITLMGITWFWKSLTFDKEVKVFEFWGDHQEAFRPGAIVSPWGLKSGDASLRLPGIQLEEAGEYRCEVVVTPLKAQGTVQLEVVASPAS", "koff [s⁻¹]": 0.111}
{"BINDER": "ΔB7-H6_S3#23-SEED-PGLALA (bispecific antibody, part only; not given: SEED Fc chains and hu225 Fab, part only) chain, part: DLKVEMMAGGTQITPLNDNVTIFCNIFYSQPLNITEMGITWFWKSLTFDKEVKVFEFYGDHQEAFRPGAIVSPWRLKSGDASLRLPGIQLEEAGEYRCEVVVTPYKAQGTVQLEVVASPAS", "koff [s⁻¹]": 0.0525}
{"BINDER": "ΔB7-H6_S3#25-SEED-PGLALA (bispecific antibody, part only; not given: SEED Fc chains and hu225 Fab, part only) chain, part: DLKVEMMAGGTQITPLNDNVTIFCNIFYSQPLNITWMGITWFWKSLTFDKEVKVFEFYGDHQEAFRPGAIVSPWRLKSGDASLRLPGIQLEEAGEYRCEVVVTPYKAQGTVQLEVVASPAS", "koff [s⁻¹]": 0.0486}
{"BINDER": "ΔB7-H6_S3#27-SEED-PGLALA (bispecific antibody, part only; not given: SEED Fc chains and hu225 EGFR Fab, part only) chain, part: DLKVEMMAGGTQITPLNDNVTIFCNIFYSQPLNITTMGITWFWKSLTFDKEVKVFEFWGDHQEAFRPGAIVSPWRLKSGDASLRLPGIQLEEAGEYRCEVIVTPYKAQGTVQLEVVASPAS", "koff [s⁻¹]": 0.0556}

For ΔB7-H6_S3#17-SEED-PGLALA (bispecific antibody, part only; not given: SEED Fc chains and hu225 EGFR Fab, part only) chain, part: DLKVEMMAGGTQITPLNDNVTIFCNIFYSQPLNITSMGITWFWKSLTFDKEVKVFEFYGDHQEAFRPGAIVSPWRLKSGDASLRLPGIQLEEAGEYRCEVFVTPLKAQGTVQLEVVASPAS the binder record lists koff as 0.0573

For ΔB7-H6_S3#14-SEED-PGLALA (bispecific antibody, part only; not given: SEED Fc chains and hu225 Fab, part only) chain, part: DLKVEMMAGGTQITPLNDNVTIFCNIFYSQPLNITTMGITWFWKSLTFDKEVKVFEFYGDHQEAFRPGAIVSPWRLKSGDASLRLPGIQLEEAGEYRCEVVVTPYKAQGTVQLEVVASPAS the binder record lists koff as 0.0322

For ΔB7-H6_S3#6-SEED-PGLALA (bispecific antibody, part only; not given: SEED Fc chains and hu225 Fab, part only) chain, part: DLKVEMMAGGTQITPLNDNVTIFCNIFYSQPLNITHMGITWFWKSLTFDKEVKVFEFWGDHQEAFRPGAIVSPWRLKSGDASLRLPGIQLEEAGEYRCEVVVTPYKAQGTVQLEVVASPAS the binder record lists koff as 0.0244
